# cytotoxicity at 70.5 h per record follows
# method: Human HepG2 cell viability assay in 384 well format
# Format: toxicity, cell-based
# Set-up: dose 125 nL, time 70.5 hour; concentration not given beside the values
# statedConditions: HepG2 cells, read-out: Inhibition
Answer in %, number only, no unit symbol.

Guide cases for cytotoxicity at 70.5 h, answers given:
{"columns": ["compound", "cytotoxicity at 70.5 h [%]"],
 "data": [
  ["CCc1noc(CS(=O)(=O)C/C=C/c2ccccc2)n1", -10.8],
  ["Cc1nc(C)n(CC2CCCCN2CC(=O)Nc2cccnc2)n1 (centres undefined)", -0.493],
  ["Cc1noc([C@@H]2C[C@H](NC(=O)Nc3ccccc3)CN2C)n1", -1.94],
  ["NC(=O)CC1CCN(C(=O)NCc2cccc(-n3cccn3)c2)CC1", -1.91],
  ["CNC(=O)CN1CCC(NC2CSCCc3ccccc32)CC1 (centres undefined)", 0.136]
]}

Query :: Query cytotoxicity at 70.5 h for Cc1[nH]nc(CCC(=O)NCC2CCCN(C3CCCC3)C2)c1C (centres undefined)
Result :: -5.73

Query :: Query cytotoxicity at 70.5 h for CCC(C)C(=O)Nc1ccc(CCN2CCOCC2)cc1 (centres undefined)
Result :: -18.2

Query :: Query cytotoxicity at 70.5 h for COc1cc(C(=O)Nc2nc(C)no2)ccc1OC(F)F
Result :: 2.82

Query :: Query cytotoxicity at 70.5 h for Cn1cc(CN2C[C@@H]3COC[C@]3(COCC3CC3)C2)cn1
Result :: -5.3

Query :: Query cytotoxicity at 70.5 h for COCCN(C)C(=O)Cn1cccc(OC)c1=O
Result :: -9.38

Query :: Query cytotoxicity at 70.5 h for CCC(C)(O)CNc1ccc(S(=O)(=O)C(F)F)cc1 (centres undefined)
Result :: -5.3

Query :: Query cytotoxicity at 70.5 h for Cn1cc(CN2CC[C@@H]3[C@@H]2CCN3C(=O)c2cccc(F)c2)cn1
Result :: -14.7

Query :: Query cytotoxicity at 70.5 h for Cc1ccnc(OC[C@]23COC[C@H]2CN(C(=O)c2cnccn2)C3)n1
Result :: 14.9

---

# cytotoxicity at 70.5 h per record follows
# method: Human HepG2 cell viability assay in 384 well format
# Format: toxicity, cell-based
# Parameters: dose 125 nL, time 70.5 hour; concentration not given beside the values
# statedConditions: HepG2 cells, read-out: Inhibition
Answer in %, number only, no unit symbol.

{"columns": ["compound", "valueUnit", "cytotoxicity at 70.5 h"],
 "data": [
  ["CC1N(c2cnn(C)c2)C(=O)COC12CCN(CC1CC1)CC2 (stereo unspecified)", "%", -3.07]
]}

Query :: Query cytotoxicity at 70.5 h for CN(Cc1ccc(OCC(=O)N2CCOCC2)cc1)S(C)(=O)=O
Result :: 2.5

Query :: Query cytotoxicity at 70.5 h for CC(=O)Nc1nc(-c2ccccc2)c[nH]1
Result :: 3.67

Query :: Query cytotoxicity at 70.5 h for CC(NC(=O)NCCCO)c1ccc(-c2ccncc2)cc1 (stereo unspecified)
Result :: -9.46

Query :: Query cytotoxicity at 70.5 h for COc1ccc(CC(=O)N2CC[C@@H]3CN(C)S(=O)(=O)[C@@H]3CC2)cc1
Result :: -5.74

Query :: Query cytotoxicity at 70.5 h for Cc1nn(CCn2ccnc2-c2cc3n(n2)CCCNC3)c(C)c1Cl
Result :: 13.8

Query :: Query cytotoxicity at 70.5 h for CCN(CC)C(CNCc1ccc(OC)c(F)c1)c1ccco1 (stereo unspecified)
Result :: 54.9

Query :: Query cytotoxicity at 70.5 h for Cc1cncc(NC(=O)c2ccc(CN3CCCC(C(N)=O)C3)cc2)c1 (stereo unspecified)
Result :: -0.673

Query :: Query cytotoxicity at 70.5 h for CN(Cc1ccc2c(c1)OCO2)C(=O)Cn1cccnc1=O
Result :: 17.3

Query :: Query cytotoxicity at 70.5 h for N#Cc1c(Cl)nsc1NCc1cccnc1OCC(F)(F)F
Result :: -105

Query :: Query cytotoxicity at 70.5 h for Cc1cc(Cn2cc(C#N)c(=O)c3ccccc32)no1
Result :: -5.19

---

# cytotoxicity at 70.5 h per record follows
# method: Human HepG2 cell viability assay in 384 well format
# Format: toxicity, cell-based
# Design: dose 125 nL, time 70.5 hour; concentration not given beside the values
# statedConditions: HepG2 cells, read-out: Inhibition
Remember to put the unit after the number in your answer.

Guide cases for cytotoxicity at 70.5 h, answers given:
{"columns": ["compound", "recordedMeasurement"],
 "data": [
  ["O=C(NCC(O)c1ccc(F)cc1)C1CCN(C2CCCCC2)CC1 (stereo unspecified)", "-7.05%"],
  ["COc1nc2c(cc1C(=O)N1CCCOC(Cn3cccn3)C1)CCC2 (stereo unspecified)", "-2.14%"],
  ["COC(=O)c1ccc(N(C(=O)c2cccnc2C)C(C)C)c(C)c1", "-7.81%"]
]}

Query :: Query cytotoxicity at 70.5 h for CC(C)(C)c1c[nH]c([C@@H]2COCCN2C2CCOCC2)n1
Result :: 12.2%

Query :: Query cytotoxicity at 70.5 h for CCCN(CC(F)(F)F)S(=O)(=O)c1cc(C(N)=O)n(C)c1
Result :: -8.17%

Query :: Query cytotoxicity at 70.5 h for CCOCCC(=O)Nc1cccc(Cl)c1C(N)=O
Result :: -0.685%

---

# method: Human HepG2 cell viability assay in 384 well format
# Format: toxicity, cell-based
# Design: dose 125 nL, time 70.5 hour; concentration not given beside the values
# statedConditions: HepG2 cells, read-out: Inhibition
measure: cytotoxicity at 70.5 h (%)
Answer in %, number only, no unit symbol.

Guide cases for cytotoxicity at 70.5 h, answers given:
{"columns": ["molecule", "recordedMeasurement"],
 "data": [
  ["Cc1cccc(C)c1CNC1(CCO)CCOCC1", -16],
  ["O=C(c1cncs1)N1CCOCC(Cc2ccncn2)C1 (stereo not given)", -7.66],
  ["CN(Cc1nnc(C2CC2)o1)C1CCCN(c2cccnn2)C1 (stereo not given)", -3.05],
  ["Nc1nc2c(c(NCc3nccs3)n1)CCN(CC1CCCC1)CC2", -17.1],
  ["COCC1CN(C(=O)Nc2cc(-n3cccc3)ccc2F)CCO1 (stereo not given)", 7.34],
  ["CN1CCN(C(=O)CCc2cccnc2)c2ccc(F)cc21", 1.2],
  ["Nc1nccnc1CC1CCCN(Cc2cccc3[nH]ccc23)C1 (stereo not given)", 0.122],
  ["COCc1nc(C(=O)N2CCCC2c2cccs2)cs1 (stereo not given)", -7.86],
  ["CC(O)C1CCN(C(=O)CCOc2ccccc2F)CC1 (stereo not given)", -14.1],
  ["O=C(c1cccc2ccnn12)N1CCC[C@H]1CN1CCCC1", 6.92]
]}

Query :: Query cytotoxicity at 70.5 h for Cc1nn(C)c(N2CCOCC2)c1CNC(C)c1ccccn1 (stereo not given)
Result :: 5.82

Query :: Query cytotoxicity at 70.5 h for Cc1occc1C(=O)NCC(=O)NCCOc1ccc2c(c1)CCC2
Result :: -10.4

Query :: Query cytotoxicity at 70.5 h for O=C(COC1CCCC1)NC(C(=O)Nc1cc[nH]n1)c1ccccc1 (stereo not given)
Result :: 3.78

---

# method: Human HepG2 cell viability assay in 384 well format
# Type: toxicity, cell-based
# Parameters: dose 125 nL, time 70.5 hour; concentration not given beside the values
# statedConditions: HepG2 cells, read-out: Inhibition
measure: cytotoxicity at 70.5 h
Remember to put the unit after the number in your answer.

Guide cases for cytotoxicity at 70.5 h, answers given:
{"columns": ["molecule", "recordedMeasurement"],
 "data": [
  ["COCC1CC2(CCN(C(=O)c3ccccc3C)CC2)CN1C(C)C (configuration not stated)", "19.7%"],
  ["COc1ccc(CCN2CCN(C(=O)c3scnc3C)CC2)cc1", "-5.8%"]
]}

Query :: Query cytotoxicity at 70.5 h for CCn1nc(C)c(-c2cncn2Cc2ccccc2CN(C)C)c1C
Result :: -3.79%

Query :: Query cytotoxicity at 70.5 h for CN(C)c1ncc2c(n1)CN(C1CCSCC1)C2=O
Result :: 22.1%

Query :: Query cytotoxicity at 70.5 h for CCOc1ccc(CN2CCC(c3ccn[nH]3)C2)cc1CO (configuration not stated)
Result :: 3.78%

Query :: Query cytotoxicity at 70.5 h for OC1CCCOC12CCN(c1ncccn1)CC2 (configuration not stated)
Result :: 15.7%

Query :: Query cytotoxicity at 70.5 h for O=C(NCc1nn(-c2ccccc2)c2c1CCC2)N1CCSCC1
Result :: 32.7%

Query :: Query cytotoxicity at 70.5 h for Cn1c(CN2CCC(O)CC2)nnc1C1CCCN(c2ccncc2)C1 (configuration not stated)
Result :: -9.58%

Query :: Query cytotoxicity at 70.5 h for Cc1csc2nc3n(c(=O)c12)CCN(C(=O)c1ccncc1)CC3
Result :: -7.78%

Query :: Query cytotoxicity at 70.5 h for CC(=O)N1CCCC(Cc2cnc(C(=O)N3CCC(C)CC3)cn2)C1 (configuration not stated)
Result :: -5.67%

Query :: Query cytotoxicity at 70.5 h for CC(c1ccccc1F)N(CC(N)=O)C1CC1 (configuration not stated)
Result :: -4.03%

Query :: Query cytotoxicity at 70.5 h for Cc1n[nH]c(C)c1CC(=O)NCc1ccccc1Cl
Result :: 1.58%
